# test description: Solubility test in FaSSIF at 37° C.
# Type: physicochemical
# particulars: FaSSIF (Fasted State Simulated Intestinal Fluid), thermodynamic from solid, 30 min
quantity name: solubility at 30 min (µg/mL)
Answer format: numeric, µg/mL implied, no suffix.

Given C#Cc1cc(Oc2cnc(N)nc2N)c(C(C)C)cn1 [Free base] , state its recorded solubility at 30 min.
80

* * *

# test description: Solubility test in FaSSIF at 37° C.
# Type: physicochemical
# particulars: FaSSIF (Fasted State Simulated Intestinal Fluid), thermodynamic from solid, 24 h
quantity name: solubility at 24 h (µg/mL)
Answer format: numeric, µg/mL implied, no suffix.

Given C#Cc1cc(Oc2cnc(N)nc2N)c(C(C)C)cn1 [Free base] , state its recorded solubility at 24 h.
110
